- subject_of_test: SHP-2 full length protein (Homo sapiens (Human))
- Sequence (Q06124 whole entry): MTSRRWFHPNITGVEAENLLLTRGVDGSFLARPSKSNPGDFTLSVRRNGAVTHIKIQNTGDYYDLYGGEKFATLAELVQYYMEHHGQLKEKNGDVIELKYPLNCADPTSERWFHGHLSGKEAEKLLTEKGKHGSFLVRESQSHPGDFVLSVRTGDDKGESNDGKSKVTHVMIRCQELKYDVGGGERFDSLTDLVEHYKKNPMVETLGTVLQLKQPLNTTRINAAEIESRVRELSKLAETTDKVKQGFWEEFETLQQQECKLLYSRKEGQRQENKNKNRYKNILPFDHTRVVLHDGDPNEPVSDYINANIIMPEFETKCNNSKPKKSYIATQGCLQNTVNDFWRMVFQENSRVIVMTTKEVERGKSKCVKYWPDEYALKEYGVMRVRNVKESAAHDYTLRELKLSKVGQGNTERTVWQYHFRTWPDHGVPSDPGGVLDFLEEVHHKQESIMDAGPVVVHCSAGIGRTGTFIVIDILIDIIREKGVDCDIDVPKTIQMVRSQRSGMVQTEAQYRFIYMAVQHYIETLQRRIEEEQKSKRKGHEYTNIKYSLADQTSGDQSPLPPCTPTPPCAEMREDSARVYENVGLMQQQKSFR
- assay_notes: SHP-2 biochemical DiFMUP pseudosubstrate-fluorogenic assay
- study_conditions: 0.2 nM SHP-2, 1 μM IRS-1 activator peptide, 50 μM DiFMUP; read-out: SHP2 IC50
measured_metric: IC50 (nM)
A number alone suffices; assume nM.

Incoming: For the molecule shown here, "C[C@@H]1OCC2(CCN(c3ncc(Sc4ccnc5cnccc45)c4nccn34)CC2)[C@@H]1N" , give the reported IC50.
Outgoing: 15

Incoming: For the molecule shown here, "Nc1nccc(Sc2cnc(N3CCC4(CCC[C@H]4N)CC3)n3cnnc23)c1Cl" , give the reported IC50.
Outgoing: 13

Incoming: For the molecule shown here, "CCSc1ccccc1Sc1cnc(N2CCC3(CC2)Cc2ccccc2[C@H]3N)n2ccnc12" , give the reported IC50.
Outgoing: 4

Incoming: For the molecule shown here, "CSc1ccccc1Sc1cnc(N2CCC3(CC2)Cc2ccccc2[C@H]3N)n2ccnc12" , give the reported IC50.
Outgoing: 1.8

Incoming: For the molecule shown here, "CC1(N)CCN(c2ncc(Sc3cccc(Cl)c3Cl)c3nncn23)CC1" , give the reported IC50.
Outgoing: 130

Incoming: For the molecule shown here, "Cc1nc(N2CCC3(CCC[C@H]3N)CC2)n2ccnc2c1-c1ccc(Cl)c(Cl)c1" , give the reported IC50.
Outgoing: 95

Incoming: For the molecule shown here, "N[C@@H]1c2ccccc2CC12CCN(c1ncc(Sc3cccc4cnsc34)c3nccn13)CC2" , give the reported IC50.
Outgoing: 2.6

Incoming: For the molecule shown here, "Cc1nccc(Sc2cnc(N3CCC4(CCC[C@H]4N)CC3)n3ccnc23)c1Cl" , give the reported IC50.
Outgoing: 7.6

----------
- subject_of_test: SHP-2 full length protein (Homo sapiens (Human))
- assay_notes: SHP-2 biochemical DiFMUP pseudosubstrate-fluorogenic assay
- study_conditions: 0.2 nM SHP-2, 1 μM IRS-1 activator peptide, 50 μM DiFMUP; read-out: SHP2 IC50
measured_metric: log10 IC50 (log10 of the value in nM)
Each number you see is log10 of IC50, and the unit inside the log is nM.

Incoming: For the compound shown here, "Cc1nc(N2CCC3(CCC[C@H]3N)CC2)n2ccnc2c1-c1ccccc1" , give the reported log10 IC50.
Outgoing: 1.95

Incoming: For the compound shown here, "Cc1nc(N2CCC3(CC2)CO[C@@H](C)[C@H]3N)n2ccnc2c1-c1cccc(Cl)c1Cl" , give the reported log10 IC50.
Outgoing: 0.45

Incoming: For the compound shown here, "NC[C@H]1[C@H]2CN(c3ncc(Sc4cccc(Cl)c4Cl)c4nccn34)C[C@@H]12" , give the reported log10 IC50.
Outgoing: 1.90

Incoming: For the compound shown here, "C[C@@H]1OCC2(CCN(c3ncc(Sc4ccnc(N)c4Cl)c4nccn34)CC2)[C@@H]1N" , give the reported log10 IC50.
Outgoing: 0.70

Incoming: For the compound shown here, "Cc1nc(N2CCC3(CCC[C@H]3N)CC2)n2ccnc2c1-c1ccnc(F)c1Cl" , give the reported log10 IC50.
Outgoing: 1.87

Incoming: For the compound shown here, "Cc1c(Sc2cnc(N3CCC4(CCC[C@H]4N)CC3)n3ccnc23)ccnc1Cl" , give the reported log10 IC50.
Outgoing: 0.86

----------
Would you kindly list pIC50 for each of these molecules?
- subject_of_test: SHP-2 full length protein (Homo sapiens (Human))
- assay_notes: SHP-2 biochemical DiFMUP pseudosubstrate-fluorogenic assay
- study_conditions: 0.2 nM SHP-2, 1 μM IRS-1 activator peptide, 50 μM DiFMUP; read-out: SHP2 IC50
// scale note: pIC50 = -log10(conc_M); give the bare number

Incoming: Item: N[C@@H]1c2ccccc2CC12CCN(c1ncc(Sc3ccnc4cccnc34)c3nccn13)CC2 [Example 144] Test system: SHP-2 full length protein (Homo sapiens (Human)) Read-out: pIC50 Value: ?
Outgoing: 8.44

Incoming: Item: N[C@@H]1CCCC12CCN(c1ncc(Sc3ccnc4ccccc34)c3nccn13)CC2 [Example 78] Test system: SHP-2 full length protein (Homo sapiens (Human)) Read-out: pIC50 Value: ?
Outgoing: 8.23

Incoming: Item: CC1(CN)CCN(c2ncc(Sc3cccc(Cl)c3Cl)c3nccn23)CC1 [Example 43] Test system: SHP-2 full length protein (Homo sapiens (Human)) Read-out: pIC50 Value: ?
Outgoing: 7.64

Incoming: Item: Cc1nc(N2CCC3(CCC[C@H]3N)CC2)n2ccnc2c1-c1cccc(C(F)(F)F)c1 [Example 7] Test system: SHP-2 full length protein (Homo sapiens (Human)) Read-out: pIC50 Value: ?
Outgoing: 5.89

Incoming: Item: C[C@@H]1OCC2(CCN(c3ncc(Sc4ccnc5cccnc45)c4nccn34)CC2)[C@@H]1N [Example 128] Test system: SHP-2 full length protein (Homo sapiens (Human)) Read-out: pIC50 Value: ?
Outgoing: 7.85

Incoming: Item: Cc1nc(N2CCC3(CC2)C[C@@H](O)C[C@H]3N)n2ccnc2c1-c1cccc(Cl)c1Cl [Example 33] Test system: SHP-2 full length protein (Homo sapiens (Human)) Read-out: pIC50 Value: ?
Outgoing: 8.51

Incoming: Item: COC(=O)c1cccc2c(Sc3cnc(N4CCC5(CC4)CO[C@@H](C)[C@H]5N)n4ccnc34)ccnc12 [Example 105] Test system: SHP-2 full length protein (Homo sapiens (Human)) Read-out: pIC50 Value: ?
Outgoing: 7.09

Incoming: Item: Cc1nc(N2CCC3(CCC[C@H]3N)CC2)n2ccnc2c1-c1cccc(Cl)c1 [Example 23] Test system: SHP-2 full length protein (Homo sapiens (Human)) Read-out: pIC50 Value: ?
Outgoing: 6.80
